Tested on: HEK-293T
Test: Multiplex assay against HEK293T
Type: toxicity, cell-based
Conditions: human, 24 h, 1 µM, compound concentration 1 uM, replicate 1
Kindly state Population Normal (%) for each of the entries shown.
One number for each entry, in %.

These recorded examples may help you get a feel for the data.
INSERT INTO assay_data (compound, metric, value_reported) VALUES
  ('CN1CCN(c2nc3cc(C(F)(F)F)ccc3n3cccc23)CC1.O=C(O)/C=C\C(=O)O.O=C(O)/C=C\C(=O)O', 'Population Normal (%)', 93),
  ('CSc1ccccc1N1CCN(CCCCCC(=O)NC2CCCc3ccccc32)CC1.Cl (stereo not given)', 'Population Normal (%)', 95),
  ('Cc1ccc(F)cc1C(=O)Nc1ccc(C(=O)N2Cc3cccn3Cc3ccccc32)c(Cl)c1', 'Population Normal (%)', 94);

Provide Population Normal (%) for all items below, preserving their order.
1. COc1c(C)cc(NC(=O)c2nn(Cc3ccc(F)cc3)c3c2CN(C(=O)c2ccc[nH]2)C[C@]3(C)C(N)=O)cc1C
2. Cc1ccc(-c2ccc(F)cc2COc2ccc(CCC(=O)O)cc2)cc1
3. CCCn1c(=O)c2[nH]c(C3CCCC3)nc2n(CCC)c1=O
4. O=C(O)Cc1ccccc1Nc1c(Cl)cccc1Cl
5. Cc1nc2ccc(Oc3ccc(F)cc3)cc2c(=O)n1C[C@H]1CCCN(C(C)C)C1.Cl
6. Cl.Clc1ccc2nsnc2c1NC1=NCCN1 [TIZANIDINE HYDROCHLORIDE]

Response given:
1. 95
2. 96
3. 95
4. 96
5. 95
6. 95

Entry O=C(NCCO)c1cccc(-c2cc(Nc3ccc(OC(F)(F)F)cc3)ncn2)c1 ; assay system HEK-293T; Population Normal (%) recorded at 95

The reported measurements were obtained from ChEMBL document CHEMBL5058577.
